Quick reference: inhibition of the listed items.
target under test: NAD-dependent protein deacetylase sirtuin-1 (Homo sapiens) (UniProt Q96EB6)
Sequence (Q96EB6 whole entry): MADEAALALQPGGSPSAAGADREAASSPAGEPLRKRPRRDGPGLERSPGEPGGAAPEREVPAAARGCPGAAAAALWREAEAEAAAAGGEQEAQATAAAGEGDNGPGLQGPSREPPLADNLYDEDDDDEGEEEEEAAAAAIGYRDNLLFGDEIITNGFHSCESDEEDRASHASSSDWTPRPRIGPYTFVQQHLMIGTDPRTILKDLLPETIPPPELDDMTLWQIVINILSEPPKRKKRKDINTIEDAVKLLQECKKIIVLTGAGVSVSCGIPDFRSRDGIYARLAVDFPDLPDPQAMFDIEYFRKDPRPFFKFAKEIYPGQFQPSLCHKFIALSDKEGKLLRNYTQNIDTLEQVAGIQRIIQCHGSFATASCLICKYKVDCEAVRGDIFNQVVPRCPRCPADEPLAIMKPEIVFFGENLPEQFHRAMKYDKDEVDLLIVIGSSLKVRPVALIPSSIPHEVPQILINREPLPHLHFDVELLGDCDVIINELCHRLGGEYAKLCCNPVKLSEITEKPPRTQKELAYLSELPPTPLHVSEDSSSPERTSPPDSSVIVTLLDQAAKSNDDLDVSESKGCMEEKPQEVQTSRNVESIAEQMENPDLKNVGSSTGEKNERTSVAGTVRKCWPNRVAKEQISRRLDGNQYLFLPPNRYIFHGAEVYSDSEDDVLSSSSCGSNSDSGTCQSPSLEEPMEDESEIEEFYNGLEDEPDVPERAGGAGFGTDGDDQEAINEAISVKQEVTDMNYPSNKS
measurement protocol: Inhibition of full length human SIRT1 expressed in Escherichia coli BL21 (DE3) cells at 100 uM using fluorogenic 7-amino-4-methylcoumarin (AMC)-labeled peptide by fluorescence assay

Consider the worked cases shown below.
Item O=C(Nc1cccc2cc(S(=O)(=O)O)ccc12)c1cccc([N+](=O)[O-])c1 with NAD-dependent protein deacetylase sirtuin-1 (Homo sapiens) (UniProt Q96EB6) - inhibition?
13%

Item Cc1ccc(C(=O)Nc2cccc3cccc(S(=O)(=O)O)c23)cc1[N+](=O)[O-] with NAD-dependent protein deacetylase sirtuin-1 (Homo sapiens) (UniProt Q96EB6) - inhibition?
26%

Item O=C(Nc1cccc2cccc(S(=O)(=O)O)c12)c1ccccc1 with NAD-dependent protein deacetylase sirtuin-1 (Homo sapiens) (UniProt Q96EB6) - inhibition?
17%

Item NC(=O)c1ccc(Oc2cccc3ccccc23)nc1 with NAD-dependent protein deacetylase sirtuin-1 (Homo sapiens) (UniProt Q96EB6) - inhibition?
< 10%

Item NC(=O)c1cccc(Nc2cccc3ccccc23)c1 with NAD-dependent protein deacetylase sirtuin-1 (Homo sapiens) (UniProt Q96EB6) - inhibition?
< 10%

Next:
Item NC(=O)c1cccc(Nc2ccc3ccccc3c2)c1 with NAD-dependent protein deacetylase sirtuin-1 (Homo sapiens) (UniProt Q96EB6) - inhibition?
< 10%

Item NC(=O)c1ccc(Oc2cccc3ccccc23)cc1 with NAD-dependent protein deacetylase sirtuin-1 (Homo sapiens) (UniProt Q96EB6) - inhibition?
< 10%

###

target under test: NAD-dependent protein deacetylase sirtuin-2 (Homo sapiens)
measurement protocol: Inhibition of full length human SIRT2 expressed in Escherichia coli BL21 (DE3) cells at 100 uM using fluorogenic 7-amino-4-methylcoumarin (AMC)-labeled peptide by fluorescence assay
Decision: inhibition compared against 30%; not below it gives class 1, below it gives class 0.

Example entries and their recorded answers appear below.
Quick check, inhibition >= 30%? Nc1cccc(C(=O)Nc2ccc(S(=O)(=O)O)c3ccccc23)c1
class 0

Quick check, inhibition >= 30%? Cc1ccc(C(=O)Nc2cccc3cccc(S(=O)(=O)O)c23)cc1[N+](=O)[O-]
class 0

Quick check, inhibition >= 30%? Cc1ccc(C(=O)Nc2cccc3cccc(S(=O)(=O)O)c23)cc1
class 0

Next:
Quick check, inhibition >= 30%? O=C(Nc1cccc2cccc(S(=O)(=O)O)c12)c1cccc([N+](=O)[O-])c1
class 0

Quick check, inhibition >= 30%? NC(=O)c1ccc(Nc2cccc3ccccc23)cc1
class 0

Quick check, inhibition >= 30%? Nc1cccc(C(=O)Nc2cccc3cccc(S(=O)(=O)O)c23)c1
class 0

Quick check, inhibition >= 30%? Cc1ccc(C(=O)Nc2cccc3cc(S(=O)(=O)O)ccc23)cc1N
class 0

Quick check, inhibition >= 30%? O=C(Nc1cccc2cccc(S(=O)(=O)O)c12)c1ccccc1
class 0

Quick check, inhibition >= 30%? NC(=O)c1cccc(Nc2cccc3ccccc23)c1
class 1

###

Quick reference: inhibition of the listed items.
target under test: NAD-dependent protein deacetylase sirtuin-3, mitochondrial (Homo sapiens)
Sequence (whole entry): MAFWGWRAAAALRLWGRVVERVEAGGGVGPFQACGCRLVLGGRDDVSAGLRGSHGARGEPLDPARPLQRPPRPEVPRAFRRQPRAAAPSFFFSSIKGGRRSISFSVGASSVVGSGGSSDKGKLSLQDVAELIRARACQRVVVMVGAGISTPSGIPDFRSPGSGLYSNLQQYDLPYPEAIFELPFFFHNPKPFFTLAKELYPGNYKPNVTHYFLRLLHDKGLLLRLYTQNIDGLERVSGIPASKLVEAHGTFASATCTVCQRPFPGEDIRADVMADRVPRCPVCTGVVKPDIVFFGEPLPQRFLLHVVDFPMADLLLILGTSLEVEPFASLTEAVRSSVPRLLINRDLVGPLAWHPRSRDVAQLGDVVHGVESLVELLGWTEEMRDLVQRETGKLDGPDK
condition description: BL21-DE3, 100 uM
// return numeric value only (unit: %, not printed)

Item Cc1ccc(C(=O)Nc2cccc3cccc(S(=O)(=O)O)c23)cc1N with NAD-dependent protein deacetylase sirtuin-3, mitochondrial (Homo sapiens) - inhibition?
16

Next:
Item NC(=O)c1cccc(Oc2cccc3ccccc23)c1 with NAD-dependent protein deacetylase sirtuin-3, mitochondrial (Homo sapiens) - inhibition?
35

Item NC(=O)c1ccc(Nc2cccc3ccccc23)nc1 with NAD-dependent protein deacetylase sirtuin-3, mitochondrial (Homo sapiens) - inhibition?
38

Item O=C(Nc1ccc(S(=O)(=O)O)c2ccccc12)c1cccc([N+](=O)[O-])c1 with NAD-dependent protein deacetylase sirtuin-3, mitochondrial (Homo sapiens) - inhibition?
23

Item O=C(Nc1ccc(S(=O)(=O)O)c2ccccc12)c1ccccc1 with NAD-dependent protein deacetylase sirtuin-3, mitochondrial (Homo sapiens) - inhibition?
25

Item NC(=O)c1ccc(Sc2ccc3ccccc3c2)nc1 with NAD-dependent protein deacetylase sirtuin-3, mitochondrial (Homo sapiens) - inhibition?
42

Item NC(=O)c1ccc(Nc2ccc3ccccc3c2)cc1 with NAD-dependent protein deacetylase sirtuin-3, mitochondrial (Homo sapiens) - inhibition?
47

Item NC(=O)c1cccc(Oc2ccc3ccccc3c2)c1 with NAD-dependent protein deacetylase sirtuin-3, mitochondrial (Homo sapiens) - inhibition?
49

Item NC(=O)c1ccc(Nc2cccc3ccccc23)cc1 with NAD-dependent protein deacetylase sirtuin-3, mitochondrial (Homo sapiens) - inhibition?
22

Item Cc1ccc(C(=O)Nc2cccc3cc(S(=O)(=O)O)ccc23)cc1 with NAD-dependent protein deacetylase sirtuin-3, mitochondrial (Homo sapiens) - inhibition?
22

###

Quick reference: inhibition of the listed items.
target under test: NAD-dependent protein deacetylase sirtuin-2 (Homo sapiens) (UniProt Q8IXJ6)
Sequence (whole entry): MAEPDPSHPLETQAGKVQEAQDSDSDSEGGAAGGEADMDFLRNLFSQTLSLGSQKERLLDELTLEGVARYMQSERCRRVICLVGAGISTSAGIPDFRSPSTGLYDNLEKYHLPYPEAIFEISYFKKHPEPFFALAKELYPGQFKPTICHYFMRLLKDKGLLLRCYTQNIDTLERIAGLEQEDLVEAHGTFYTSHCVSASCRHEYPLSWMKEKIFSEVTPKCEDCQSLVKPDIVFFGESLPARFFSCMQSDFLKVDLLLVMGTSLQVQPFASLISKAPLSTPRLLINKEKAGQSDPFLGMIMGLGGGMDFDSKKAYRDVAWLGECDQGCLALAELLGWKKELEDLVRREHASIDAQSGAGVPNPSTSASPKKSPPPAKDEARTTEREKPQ
measurement protocol: Inhibition of full length human SIRT2 expressed in Escherichia coli BL21 (DE3) cells at 100 uM using fluorogenic 7-amino-4-methylcoumarin (AMC)-labeled peptide by fluorescence assay
// return numeric value only (unit: %, not printed)

Which measured inhibition value corresponds to NC(=O)c1ccc(Sc2cccc3ccccc23)cc1 ?
24

Which measured inhibition value corresponds to NC(=O)c1ccc(Oc2cccc3ccccc23)cc1 ?
27

Which measured inhibition value corresponds to Cc1ccc(C(=O)Nc2ccc(S(=O)(=O)O)c3ccccc23)cc1N ?
13

Which measured inhibition value corresponds to NC(=O)c1ccc(Sc2ccc3ccccc3c2)nc1 ?
73

Which measured inhibition value corresponds to Cc1ccc(C(=O)Nc2cccc3cc(S(=O)(=O)O)ccc23)cc1[N+](=O)[O-] ?
38

Which measured inhibition value corresponds to Cc1ccc(C(=O)Nc2cccc3cc(S(=O)(=O)O)ccc23)cc1 ?
24

Next:
Which measured inhibition value corresponds to NC(=O)c1ccc(Oc2cccc3ccccc23)nc1 ?
33

Which measured inhibition value corresponds to O=C(Nc1ccc(S(=O)(=O)O)c2ccccc12)c1cccc([N+](=O)[O-])c1 ?
29

###

Quick reference: inhibition of the listed items.
target under test: NAD-dependent protein deacetylase sirtuin-3, mitochondrial (Homo sapiens) (UniProt Q9NTG7)
condition description: BL21-DE3, 100 uM

Consider the worked cases shown below.
Which measured inhibition value corresponds to NC(=O)c1ccc(Nc2ccc3ccccc3c2)nc1 ?
< 10%

Which measured inhibition value corresponds to Cc1ccc(C(=O)Nc2cccc3cc(S(=O)(=O)O)ccc23)cc1[N+](=O)[O-] ?
< 10%

Which measured inhibition value corresponds to Nc1cccc(C(=O)Nc2ccc(S(=O)(=O)O)c3ccccc23)c1 ?
< 10%

Next:
Which measured inhibition value corresponds to NC(=O)c1ccc(Oc2ccc3ccccc3c2)cc1 ?
< 10%

Which measured inhibition value corresponds to O=C(Nc1cccc2cc(S(=O)(=O)O)ccc12)c1cccc([N+](=O)[O-])c1 ?
< 10%

Which measured inhibition value corresponds to Nc1cccc(C(=O)Nc2cccc3cccc(S(=O)(=O)O)c23)c1 ?
< 10%

Which measured inhibition value corresponds to NC(=O)c1ccc(Sc2ccc3ccccc3c2)cc1 ?
< 10%

Which measured inhibition value corresponds to Cc1ccc(C(=O)Nc2cccc3cccc(S(=O)(=O)O)c23)cc1[N+](=O)[O-] ?
< 10%

Which measured inhibition value corresponds to O=C(Nc1cccc2cccc(S(=O)(=O)O)c12)c1cccc([N+](=O)[O-])c1 ?
< 10%

Which measured inhibition value corresponds to NC(=O)c1cccc(Nc2cccc3ccccc23)c1 ?
< 10%

###

target under test: NAD-dependent protein deacetylase sirtuin-2 (Homo sapiens)
Sequence (whole entry): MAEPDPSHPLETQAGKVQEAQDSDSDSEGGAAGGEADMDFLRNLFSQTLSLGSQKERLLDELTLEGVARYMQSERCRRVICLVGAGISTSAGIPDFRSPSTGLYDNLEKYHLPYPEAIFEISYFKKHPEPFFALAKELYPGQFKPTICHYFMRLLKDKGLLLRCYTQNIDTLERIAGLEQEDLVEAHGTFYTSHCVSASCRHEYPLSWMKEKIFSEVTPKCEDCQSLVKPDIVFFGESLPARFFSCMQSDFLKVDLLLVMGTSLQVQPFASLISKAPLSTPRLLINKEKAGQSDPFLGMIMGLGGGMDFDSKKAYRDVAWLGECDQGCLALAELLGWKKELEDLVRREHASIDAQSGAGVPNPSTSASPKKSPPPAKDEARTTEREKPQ
measurement protocol: Inhibition of full length human SIRT2 expressed in Escherichia coli BL21 (DE3) cells at 100 uM using fluorogenic 7-amino-4-methylcoumarin (AMC)-labeled peptide by fluorescence assay
Quick reference: inhibition of the listed items.

Consider the worked cases shown below.
Which measured inhibition value corresponds to O=C(Nc1cccc2cc(S(=O)(=O)O)ccc12)c1ccccc1 ?
< 10%

Which measured inhibition value corresponds to Nc1cccc(C(=O)Nc2cccc3cc(S(=O)(=O)O)ccc23)c1 ?
< 10%

// next item, inhibition requested
Which measured inhibition value corresponds to Cc1ccc(C(=O)Nc2cccc3cccc(S(=O)(=O)O)c23)cc1N ?
< 10%
